Target desc: hERG channels (Homo sapiens, UniProt Q12809)
Construct: Evotec (cryopreserved) ATCC PTA-6812
Sequence (Q12809 whole entry): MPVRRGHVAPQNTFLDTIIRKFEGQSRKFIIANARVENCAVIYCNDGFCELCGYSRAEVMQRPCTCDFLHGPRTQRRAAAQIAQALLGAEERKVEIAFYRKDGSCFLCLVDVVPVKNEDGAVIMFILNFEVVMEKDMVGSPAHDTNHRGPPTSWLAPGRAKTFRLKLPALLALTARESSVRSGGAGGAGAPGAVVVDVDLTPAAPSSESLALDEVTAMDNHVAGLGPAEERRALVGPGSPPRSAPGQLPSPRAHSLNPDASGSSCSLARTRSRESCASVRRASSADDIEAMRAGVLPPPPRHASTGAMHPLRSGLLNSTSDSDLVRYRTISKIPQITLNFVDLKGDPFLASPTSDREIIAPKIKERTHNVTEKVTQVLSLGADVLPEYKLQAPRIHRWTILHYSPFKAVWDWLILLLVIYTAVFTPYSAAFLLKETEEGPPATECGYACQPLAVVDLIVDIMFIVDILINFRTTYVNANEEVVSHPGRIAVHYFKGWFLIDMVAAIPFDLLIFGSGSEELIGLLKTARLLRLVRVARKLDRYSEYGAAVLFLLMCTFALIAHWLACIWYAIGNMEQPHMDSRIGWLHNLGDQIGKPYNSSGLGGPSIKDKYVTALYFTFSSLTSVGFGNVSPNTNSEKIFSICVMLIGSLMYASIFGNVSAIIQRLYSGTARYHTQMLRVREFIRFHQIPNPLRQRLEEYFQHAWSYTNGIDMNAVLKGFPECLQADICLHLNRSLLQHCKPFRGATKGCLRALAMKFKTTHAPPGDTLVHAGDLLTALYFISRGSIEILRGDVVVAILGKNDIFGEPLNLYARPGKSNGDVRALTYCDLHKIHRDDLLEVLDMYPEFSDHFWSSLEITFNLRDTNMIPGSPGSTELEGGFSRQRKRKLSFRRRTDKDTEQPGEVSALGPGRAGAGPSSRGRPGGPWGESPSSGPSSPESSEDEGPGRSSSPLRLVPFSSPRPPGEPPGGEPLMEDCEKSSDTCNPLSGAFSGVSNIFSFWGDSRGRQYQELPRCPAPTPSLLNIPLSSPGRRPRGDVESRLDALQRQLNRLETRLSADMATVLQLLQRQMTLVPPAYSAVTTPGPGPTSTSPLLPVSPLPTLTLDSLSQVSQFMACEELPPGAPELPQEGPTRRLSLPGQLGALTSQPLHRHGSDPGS
Experiment description: hERG screening assay (automated patch clamp, CHO crelox hERG cell line)
Test settings: CHO-hERG cells, whole-cell patch clamp at 35-37° C.
Property: IC50

CCN1CCC[C@@H](Nc2nnc(-c3ccc4c(c3O)CCO4)c(C)n2)C1 [Example 7] : > 20 µM
CCN1CCC[C@@H](Nc2nnc(-c3ccc(C(F)(F)F)cc3O)c(C)n2)C1 [Example 4] : > 10 µM

---

As shown below, each of these compounds has a reported pIC50 value.
Target desc: NLRP3 (Homo sapiens, UniProt Q96P20)
Sequence (Q96P20 whole entry): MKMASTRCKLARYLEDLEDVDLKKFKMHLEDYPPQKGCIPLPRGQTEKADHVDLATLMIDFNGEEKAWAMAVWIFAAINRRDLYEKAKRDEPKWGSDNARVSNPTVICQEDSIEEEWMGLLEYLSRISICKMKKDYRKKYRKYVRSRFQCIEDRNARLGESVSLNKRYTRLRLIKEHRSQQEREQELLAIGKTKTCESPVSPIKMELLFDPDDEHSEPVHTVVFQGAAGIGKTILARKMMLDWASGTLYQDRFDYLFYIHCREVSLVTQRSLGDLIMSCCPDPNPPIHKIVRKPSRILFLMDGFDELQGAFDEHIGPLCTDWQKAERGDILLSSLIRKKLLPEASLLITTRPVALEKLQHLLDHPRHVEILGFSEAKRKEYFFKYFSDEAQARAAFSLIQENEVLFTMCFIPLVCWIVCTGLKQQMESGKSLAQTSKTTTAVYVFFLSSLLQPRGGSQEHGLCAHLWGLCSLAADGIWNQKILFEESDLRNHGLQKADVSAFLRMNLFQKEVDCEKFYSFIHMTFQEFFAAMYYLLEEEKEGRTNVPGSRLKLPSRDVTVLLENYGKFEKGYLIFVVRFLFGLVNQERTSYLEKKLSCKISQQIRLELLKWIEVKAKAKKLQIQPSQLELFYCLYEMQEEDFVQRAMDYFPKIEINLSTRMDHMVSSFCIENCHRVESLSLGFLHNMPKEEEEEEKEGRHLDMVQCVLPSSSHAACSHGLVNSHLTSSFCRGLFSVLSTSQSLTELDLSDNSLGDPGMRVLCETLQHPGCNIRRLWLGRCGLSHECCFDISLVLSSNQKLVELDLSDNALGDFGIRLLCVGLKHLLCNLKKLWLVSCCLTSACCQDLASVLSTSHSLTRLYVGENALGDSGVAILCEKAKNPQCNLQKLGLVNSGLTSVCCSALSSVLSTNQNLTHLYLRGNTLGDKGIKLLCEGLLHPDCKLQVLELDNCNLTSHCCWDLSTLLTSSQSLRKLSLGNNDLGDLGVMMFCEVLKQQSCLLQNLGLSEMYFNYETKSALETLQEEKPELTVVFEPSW
Experiment description: Human whole blood IL-1β release assay (LPS, nigericin, AlphaLisa)
Assay type: cell-based
Set-up: Human whole blood in Li-heparin tubes was obtained from healthy donors; from tissue; host or cells: human whole blood from healthy donors
Test settings: 10 μM nigericin
pIC50: −log10 of the molar value.
Property: pIC50

CCN1CCC[C@@H](Nc2nnc(-c3ccc4c(c3O)CCO4)c(C)n2)C1 : 8.43
CCN1CCC[C@@H](Nc2nnc(-c3c(O)cc(C(F)(F)F)cc3F)c(C)n2)C1 : 7.56
Cc1nc(N[C@@H]2CCCN(C)C2)nnc1-c1ccc(F)cc1O : 7.82
CCN1CCC[C@@H](Nc2nnc(-c3ccc(OC(F)(F)F)cc3O)c(C)n2)C1 : 7.99
Cc1nc(N[C@H]2C[C@@](C)(O)C2)nnc1-c1ccc(C(F)(F)F)cc1O : 6.72
Cc1nc(N[C@@H]2CCCNC2)nnc1-c1ccc(C(F)(F)F)cc1O : 7.33
Cc1nc(N[C@@H]2CCCN(C)C2)nnc1-c1ccc(Cl)cc1O : 7.88

---

As shown below, each of these molecules has a reported pIC50 value.
Target desc: NLRP3 (Homo sapiens)
Experiment description: Human whole blood IL-1β release assay (LPS, nigericin, AlphaLisa)
Type: cell-based
Parameters: Human whole blood in Li-heparin tubes was obtained from healthy donors; from tissue; host or cells: human whole blood from healthy donors
Test settings: 10 μM nigericin
pIC50: −log10 of the molar value.
Property: pIC50

Cc1nc(NC2CCC3CCCN3C2)nnc1-c1ccc(C(F)(F)F)cc1O (single isomer, unassigned) [Example 33] : 6.52
CCN1CCC[C@@H](Nc2nnc(-c3ccc(C#N)cc3O)c(C)n2)C1 : 7.62
CCN1CCC[C@@H](Nc2nnc(-c3ccc4c(c3O)CC4)c(C)n2)C1 : 8.37
Cc1nc(NC2CCCN3CCCC23)nnc1-c1ccc(C(F)(F)F)cc1O (single isomer, unassigned) : 7.73
Cc1nc(N[C@@H]2CCCC[C@H]2O)nnc1-c1ccc(C(F)(F)F)cc1O : 6.64
CCN1C[C@@H](O)C[C@@H](Nc2nnc(-c3c(C)cc(C(F)(F)F)cc3O)c(C)n2)C1 : 6.90
CCN1CCC[C@@H](Nc2nnc(-c3ccc4c(c3O)CCC4)c(C)n2)C1 : 8.20
Cc1nc(N[C@@H]2CCCN(C)C2)nnc1-c1ccc(C(F)(F)F)cc1O : 7.69
CCN1CCC[C@@H](Nc2nnc(-c3c(C)cc(C(F)(F)F)cc3O)c(C)n2)C1 : 7.24
